system: DMS 114; experiment: COMPOUND A In Vitro Assay; format: cell-based; conditions: Homo sapiens, Lung, TP53 Mutant
pIC50: −log10 of the molar value.
Observation Type: pIC50

| Structure Notation | Observation Type | Observed |
| --- | --- | --- |
| CCOc1cc(C(C)(C)C)ccc1C1=N[C@@](C)(c2ccc(Cl)cc2)[C@@](C)(c2ccc(Cl)cc2)N1C(=O)N1CCN(CCCS(C)(=O)=O)CC1 | pIC50 | 5.00 |

----------
system: NCI-H1666; assay: COMPOUND A In Vitro Assay; assay type: cell-based; settings: Homo sapiens, Lung, TP53 Wild type
pIC50: −log10 of the molar value.
Observation Type: pIC50

| Structure Notation | Observation Type | Observed |
| --- | --- | --- |
| CCOc1cc(C(C)(C)C)ccc1C1=N[C@@](C)(c2ccc(Cl)cc2)[C@@](C)(c2ccc(Cl)cc2)N1C(=O)N1CCN(CCCS(C)(=O)=O)CC1 | pIC50 | 4.89 |

All values here come from patent US9657351B2.
